# experimental-target: Protein Wnt-3a (Mus musculus, UniProt P27467)
# method-description: Wnt3a-driven reporter signaling inhibition, dose response, selectivity assay for Gli-SUFU antagonist project, Wnt-LIGHT cells, luminescence (AID 651570);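 note: Wnt-LIGHT reporter cells stimulated with conditioned medium from Wnt3a-producing cells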
# Assay type: functional
# conditions: read-out: IC50_Mean
Activity calls are given as the source filed them.
Answer with one of the outcomes given here: active, inactive

Use the examples below as a reference point.
molecule	experimental-target	group
CCc1ccc(CN(C)C(=O)c2cc(COc3cccc4cnccc34)on2)cc1	Protein Wnt-3a (Mus musculus, UniProt P27467)	active
CCC(CC)CN1C(N(C)C)=NC[C@@H]1CC(C)C	Protein Wnt-3a (Mus musculus, UniProt P27467)	active
C[N+]1(CC(=O)OC2CCCCCCCCCCC2)CCCC1	Protein Wnt-3a (Mus musculus, UniProt P27467)	inactive

Could you check what this test reported for CC(C)Cc1ccc(C(C)C(=O)Nc2cccnc2)cc1 (centres undefined) ? active

---

# reported EC50; entries follow
# experimental-target: Streptokinase A (Streptococcus pyogenes serotype M1)
# method-description: S. pyogenes streptokinase expression inhibitors, potency, dose response, plasminogen activation absorbance, OD405 (AID 1914);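 note: secreted streptokinase activity via plasminogen activation per viability signal from cell pellet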
# Assay type: functional, Streptococcus pyogenes M1 GAS
Calls of active or inactive are those of the source.

Here are 3 compounds together with their reported answers.
compound	recorded-endpoint	reported-measurement
CCC(=O)Nc1ccc(Nc2nc(C)c([N+](=O)[O-])c(Nc3ccc(NC(=O)CC)cc3)n2)cc1	EC50	> 150 µM (not active)
COc1ccc(NS(=O)(=O)c2ccc3nc(COc4cccc5ccccc45)[nH]c3c2)cc1	EC50	6.16 µM (active)
COc1cccc(C2C3=C(N=c4s/c(=C\c5cccc(O)c5)c(=O)n42)c2ccccc2CC3)c1OC (stereo not drawn)	EC50	6.31 µM (active)

Please fill in: EC50 reported for CC(C)(C)c1ccc(Cn2ccc(-c3ccc4c(c3)OCO4)n2)cc1 = > 150 µM (not active)

Please fill in: EC50 reported for COc1ccccc1NC1=NC(=O)/C(=C/c2ccc(N(C)C)cc2)S1 = > 150 µM (not active)

Please fill in: EC50 reported for COc1cc(OC)c(NC(=O)c2sc3ncn(CC(=O)N4CCN(c5ccccn5)CC4)c(=O)c3c2C)cc1Cl = > 150 µM (not active)

Please fill in: EC50 reported for Cc1cc(C)n(-c2nc(SCC(=O)O)c3c4c(sc3n2)COC(C)(C)C4)n1 = > 150 µM (not active)

Please fill in: EC50 reported for CCCOc1ccc(C(=O)C2=C(O)C(=O)N(c3ccccn3)C2c2ccc(OC)cc2)cc1C (stereo not drawn) = 103 µM (active)

Please fill in: EC50 reported for CCOC(=O)c1ccc(NC(=O)CC2SC(N/N=C/c3c[nH]c4ccccc34)=NC2=O)cc1 (stereo not drawn) = > 150 µM (not active)

Please fill in: EC50 reported for O=C(CSc1ccc(-c2ccc(Cl)cc2)nn1)NC1CCCC1 = > 150 µM (not active)

Please fill in: EC50 reported for O=C(NC(=S)N1CCN(C(c2ccccc2)c2ccccc2)CC1)c1ccc(S(=O)(=O)N2CCOCC2)cc1 = > 150 µM (not active)

Please fill in: EC50 reported for CC(C)(C)C(=O)N1N=C(c2ccc(NS(C)(=O)=O)cc2)CC1c1cccs1 (stereo not drawn) = > 150 µM (not active)

Please fill in: EC50 reported for COc1ccc(/C=N/NC(=O)c2cc(C(C)(C)C)[nH]n2)cc1COc1ccc(F)cc1F = > 150 µM (not active)

---

# reported CC50; entries follow
# method-description: HEp-2 cell cytotoxicity, dose response, cytotoxicity control for RSV inhibitor project, HTS (AID 2410)
# Assay type: functional
# conditions: human respiratory syncytial virus
The source made the active and inactive calls.

Here are 3 molecules together with their reported answers.
molecule	CC50
COc1cccc(Nc2nc(N)c([N+](=O)[O-])c(NCc3ccco3)n2)c1	15.8 µM (active)
CC1CN(c2ccc([N+](=O)[O-])cc2C#N)CC(C)O1 (centres undefined)	34.9 µM (active)
O=C(Nc1ccc2oc(-c3ccc4ccccc4c3)nc2c1)c1cccs1	18.6 µM (active)

# evaluate next
Please fill in: CC50 reported for O=C(/C=C/c1cccs1)c1cc(Br)ccc1OC(=O)N1CCOCC1 = 18.7 µM (active)

---

# experimental-target: DNA dC->dU-editing enzyme APOBEC-3A (Homo sapiens, UniProt P31941)
# method-description: Dose Response confirmation of small molecule APOBEC3A DNA Deaminase Inhibitors via a fluorescence-based single-stranded DNA deaminase assay. [Related pubchem assays (depositor defined):AID493011, AID493024]
# Format: functional
The source made the active and inactive calls.
recorded-endpoint: IC50

Here are 5 compounds together with their reported answers.
compound	recorded-endpoint	reported-measurement
CCN1C(NCCOC)=N[C@@H](c2cccs2)C(C(=O)OC)=C1C	IC50	4.37 µM (active)
O=C1CCCC(O)=C1Sc1ccccc1C(=O)O	IC50	13.3 µM (active)
Cn1cnc(C(=O)N2CCN(c3ccccc3)CC2)c1C(=O)N1CCN(c2ccccc2)CC1	IC50	2.75 µM (active)
COC(=O)C1=C(C)N(Cc2ccccc2)C(NCCCCO)=N[C@H]1c1cccc(C(F)(F)F)c1	IC50	4.94 µM (active)
COc1ccccc1OC(C)C(=O)N1CCN(Cc2ccc3c(c2)OCO3)CC1 (stereo unspecified)	IC50	7.43 µM (active)

# evaluate next
Please fill in: IC50 reported for CC(C[N+](C)(C)C)OC(=O)C1(c2ccccc2)CCCC1 (stereo unspecified) = 2.56 µM (active)

---

# Tested on: BJ
# method-description: cytotoxicity toward BJ-TERT-LT-ST fibroblasts, dose response, cell-based, RAS-independent, luminescence (AID 1935);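 note: BJ fibroblasts immortalized with TERT plus LT and ST oncogenes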
# Type: functional
# conditions: Homo sapiens
Calls of active or inactive are those of the source.
recorded-endpoint: EC50

Here are 3 molecules together with their reported answers.
molecule	EC50
CNC[C@@H](CC1CCCCC1)NC[C@H](CC(C)C)NCCc1cccc(C(F)(F)F)c1	2.08 µM (active)
COc1ccc(-c2cc(C(F)F)n3ncc(C(=O)n4ccnc4C)c3n2)cc1	> 150 µM (inconclusive)
CCCC(=O)Nc1ccc2c(c1)nc(CN1CCN(C(=O)OCC)CC1)n2CC	> 75 µM (inconclusive)

Record for COc1ccccc1C1C2=C(O)OCC2=Nc2cc3c(cc21)OCO3 (centres undefined) under target or system BJ: EC50 reported as 9.65 µM (inconclusive)

---

# method-description: cytotoxicity in OVCAR8 ovarian cancer cells, dose response, PAX8 project, cell-based, plate reader, dry powder samples (AID 743197)
# Format: functional
# conditions: OVCAR-8
The source made the active and inactive calls.
Answer with one of the outcomes given here: class 1 (active), class 0 (inactive)

Use the examples below as a reference point.
chemical-structure	group
COc1ccc(CN2[C@H](CO)[C@H]3c4ccccc4NC[C@H]32)cc1	class 0
CCCC#Cc1ccc([C@@H]2[C@@H](C#N)N(C(=O)C3CCCCC3)[C@H]2CO)cc1	class 1
C[C@@H]1CCCCO[C@H](CN(C)C(=O)Nc2ccc(C(F)(F)F)cc2)[C@@H](C)CN([C@@H](C)CO)C(=O)c2cc(NS(=O)(=O)c3ccc(Cl)cc3)ccc2O1	class 1

Now consider a different compound.
Could you check what this test reported for COc1ccc(-c2ccc3c(c2)[C@H]2[C@H](CCN2S(=O)(=O)c2ccc(OC)cc2)[C@@H](CO)N3C)cc1 ? class 1

---

# experimental-target: Endoribonuclease toxin MazF (Escherichia coli K-12)
# method-description: fluorescent RNA oligo signal without MazF, dose response, counter-screen for MazEF activator project, biochemical, fluorescence, single-stranded RNase substrate (AID 588502)
# Format: functional
Active and inactive are the calls of the source.
Answer with one of the outcomes given here: active, inactive

chemical-structure	group
Cc1ccc(C=C2C(=O)c3ccccc3C2=O)o1	inactive

Could you check what this test reported for Nc1c(C(=O)C2CC2)sc2nc(-c3cccs3)cc(C(F)(F)F)c12 ? active

Could you check what this test reported for O=C(Nc1ccc2oc(-c3ccc4ccccc4c3)nc2c1)c1cccs1 ? inactive

Could you check what this test reported for O=C1C(=Cc2cccn2-c2ccc(O)cc2)C(=O)c2ccccc21 ? inactive

Could you check what this test reported for Cc1ccc(/C=C2\SC(=S)N(CCC(=O)Nc3cccnc3)C2=O)cc1 ? inactive

Could you check what this test reported for NC(=O)c1ccc(-n2nnnc2SCC(=O)Nc2ccccc2F)cc1 ? inactive

---

# experimental-target: Corticotropin-releasing factor receptor 2/Corticotropin-releasing factor-binding protein (Homo sapiens, UniProt P24387+Q13324)
# method-description: Dose Response confirmation of uHTS hits for small molecule antagonists of the CRF-binding protein and CRF-R2 receptor complex.
# Assay type: functional
# conditions: read-out: IC50_Mean
The source made the active and inactive calls.
Answer with one of the outcomes given here: y for active, n for inactive

Use the examples below as a reference point.
compound	group
COC(=O)c1ccc(OCC(O)CN2C(=O)c3ccccc3S2(=O)=O)cc1 (configuration not stated)	n
Cc1noc(/C=C/N(C)C)c1S(=O)(=O)N1CCC(C(=O)Nc2ccc(Cl)cc2)CC1	n
O=C1S/C(=C\c2ccc(O)c([N+](=O)[O-])c2)C(=O)N1Cc1cccc([N+](=O)[O-])c1	y
CC(OC(=O)c1ccc(-c2ccc(O)cc2)cc1)C(=O)NC1CCCCC1C (configuration not stated)	n
CCN(CC)CCOC(=O)C(Cc1ccco1)Cc1cccc2ccccc12 (configuration not stated)	n

Could you check what this test reported for O=C(CCCCn1c(=O)c2ccccc2n(Cc2ccc(F)cc2Cl)c1=O)NCc1ccco1 ? y

Could you check what this test reported for CCOc1ccc(NC(=O)CCNS(=O)(=O)c2cccc3nonc23)cc1 ? n
